- tested system: phosphorylation levels of ERK1/2 in AsPC-1 (homozygous KRAS-G12D) cells (Homo sapiens, UniProt P01116, G12D)
- Sequence (P01116 1-186 G12D): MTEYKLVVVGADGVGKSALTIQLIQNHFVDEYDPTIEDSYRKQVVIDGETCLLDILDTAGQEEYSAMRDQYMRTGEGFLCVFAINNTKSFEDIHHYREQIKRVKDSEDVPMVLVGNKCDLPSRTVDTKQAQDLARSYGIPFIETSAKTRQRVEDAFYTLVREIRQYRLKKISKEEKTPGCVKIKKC
- assay comment: Cellular phospho-ERK assay in AsPC-1 cells (Alpha Screen), assay medium without fetal bovine serum;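 note: signal taken as phospho-ERK over total ERK per well, both detected in one multiplex bead assay, EC50 from four-parameter logistic fit of dose-response curves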
- stated conditions: phospho-ERK AlphaScreen, 18 h
pEC50: −log10 of the molar value. *1 amine or outer side, *2 acyl side, *3 side chain or, on linkers, in order; H or OH if unused. Where a SMILES comes first, the peptide text is derived from it. Bridges are numbered along the chain shown (N, C = ends). [ ]: non-standard residue; d: D form. Phe(4-guanidino) = N=C(N)Nc1ccc(C[C@H](N)C(=O)O)cc1; Ala(pyrimidin-5-yl) = N[C@@H](Cc1cncnc1)C(=O)O; Ala(cPent) = N[C@@H](CC1CCCC1)C(=O)O; Phe(2-F) = N[C@@H](Cc1ccccc1F)C(=O)O; NMe3Pal = CN[C@@H](Cc1cccnc1)C(=O)O; X1 = O=C(C12CC(CN[*:1])(C1)C2)[*:2]; X38 = NC(=O)CCCN(CC(=O)[*:2])[*:1]; NMeOrn(Me) = CNCCC[C@H](NC)C(=O)O; NMeF = CN[C@@H](Cc1ccccc1)C(=O)O; PhLac = O=C(O)[C@@H](O)Cc1ccccc1; Ahp(2) = CCCCC[C@H](N)C(=O)O; Cba = N[C@@H](CC1CCC1)C(=O)O; αMeC = C[C@](N)(CS)C(=O)O; NMeA = CN[C@@H](C)C(=O)O; Nle = CCCC[C@H](N)C(=O)O
property name: pEC50

compound="CCCCC[C@@H]1NC(=O)[C@H](Cc2ccc(OC)cc2)NC(=O)[C@H](CC2CCC2)NC(=O)[C@H](Cc2ccc(NC(=N)N)cc2)NC(=O)CN(CCCC(N)=O)C(=O)[C@H](Cc2ccccc2)NC(=O)CSC[C@@](C)(C(N)=O)NC(=O)[C@H](Cc2ccccc2)N(C)C1=O [compound 386] ({CH2CO}-F[X38][Phe(4-guanidino)][Cba]Y(Me)[Ahp(2)][NMeF][αMeC]-NH2; thioether N-8)" property_name=pEC50 measured_result="< 4.29"
compound="CCCCC[C@@H]1NC(=O)[C@H](Cc2ccc(OC)cc2)NC(=O)[C@H](CC2CCC2)NC(=O)[C@H](Cc2ccc(NC(=N)N)cc2)NC(=O)[C@H](CCCNC)N(C)C(=O)[C@H](Cc2ccccc2)NC(=O)CSC[C@@](C)(C(N)=O)NC(=O)[C@H](Cc2ccccc2)N(C)C1=O [compound 385] ({CH2CO}-F[NMeOrn(Me)][Phe(4-guanidino)][Cba]Y(Me)[Ahp(2)][NMeF][αMeC]-NH2; thioether N-8)" property_name=pEC50 measured_result="< 4.29"
compound="CCCC[C@@H]1NC(=O)[C@H](Cc2ccccc2F)NC(=O)[C@H](CC2CCCC2)NC(=O)[C@H](Cc2cncnc2)NC(=O)[C@H](C)N(C)C(=O)[C@H](Cc2ccccc2)OC(=O)C23CC(CNC(=O)[C@H](Cc4cccnc4)N(C)C1=O)(C2)C3 [compound 126] (cyclo([Ala(cPent)][Phe(2-F)][Nle][NMe3Pal][X1][PhLac][NMeA][Ala(pyrimidin-5-yl)]))" property_name=pEC50 measured_result=4.76
